From: patent US20100063126A1

System: HIV-1 strain NL4-3
method-notes: microbe, parasite or virus in culture
Assay type: cell-based
experimental-context: Human immunodeficiency virus 1, NL43, HeLa TZM cells, compared to solvent, read-out: inhibition of HIV infection
measurement-label: inhibition at 10 µM (%)

1) CCCCCCCc1c(C)c(O)cc2c1[nH]c1ccccc12 [Compound 23d] ... 20
2) CC1=C(Cc2ccc3[nH]c4c(c3c2)C(=O)C(=O)C(C)=C4CC(C)O)CCC(C)(C)C1 (stereo not shown) [Compound 22a] ... 15
3) CCCCCCCc1c(C)c(OC)c(OC)c2c1[nH]c1ccccc12 [Compound 22d] ... 21
4) CCCCCCCC1(O)C(C)=C(OC)C(=O)c2c1[nH]c1ccccc21 (stereo not shown) [Compound 22c] ... 44
